meta.source: the supplement of paper PMC12783771

B1: library; numbered along this chain (parent)
chain: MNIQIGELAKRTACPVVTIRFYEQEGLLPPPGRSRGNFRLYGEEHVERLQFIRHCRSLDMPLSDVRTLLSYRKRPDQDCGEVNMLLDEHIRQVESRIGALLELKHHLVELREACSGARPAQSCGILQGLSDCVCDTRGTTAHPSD

# Variants of: B1
# Method description: sfGFP reporter fluorescence (15 h) (µM FITC); higher = higher leak
# Assay context: library round: Round 0; ligand: none
Let's look at some variants and their measured sfGFP reporter fluorescence.
Please reply with the value in numeric form only.

// below: answered variants
V108D :: 0.061
Y41E :: 0.0607
L28C :: 0.063

Exercise: I'd like to know its sfGFP reporter fluorescence. The variant in question is V82S
Key: 0.0592
